Each recorded value in this set is attributed to patent USRE47150.

Examples of binders with documented variant/HC_K99L follow.
Biological target: T1, human tissue factor pathway inhibitor (TFPI) (human, UniProt P10646 29-304, limits assumed)
T1 construct: bought; also called hTFPI; human TFPI
T1 sequence (looked up): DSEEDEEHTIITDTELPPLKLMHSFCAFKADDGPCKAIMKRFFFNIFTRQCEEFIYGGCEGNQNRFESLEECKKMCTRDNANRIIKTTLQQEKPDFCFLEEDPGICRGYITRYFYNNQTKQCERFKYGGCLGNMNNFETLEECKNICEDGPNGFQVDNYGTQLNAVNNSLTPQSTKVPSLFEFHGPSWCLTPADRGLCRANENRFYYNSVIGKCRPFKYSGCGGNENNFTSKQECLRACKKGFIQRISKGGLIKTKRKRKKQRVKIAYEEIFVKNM
Experiment: competitive ELISA
Write the number in ratio without appending the unit.

2A8 HC S35L+S54F+K99V/LC Y48F+D91K (Fab, V domains shown) VH: QVQLVESGGGLVQPGGSLRLSCAASGFTFRSYGMLWVRQAPGKGLEWVSSIRGFSSSTYYADSVKGRFTISRDNSKNTLYLQMNSLRAEDTAVYYCARVYRYWFDYWGQGTLVTVSS VL: DIELTQPPSVSVAPGQTARISCSGDNLRNYYAHWYQQKPGQAPVVVIFYDNNRPSGIPERFSGSNSGNTATLTISGTQAEDEADYYCQSWKDGVPVFGGGTKLTVLG : 5
2A8 HC S31V+I51D+S55R+K99V/LC D1S+I2Y+A13S+S21T+R28P+N29K+Y48F+E80M+D91L+D92S+V94T+V96W (Fab, V domains shown) VH: QVQLVESGGGLVQPGGSLRLSCAASGFTFRVYGMSWVRQAPGKGLEWVSSDRGSRSSTYYADSVKGRFTISRDNSKNTLYLQMNSLRAEDTAVYYCARVYRYWFDYWGQGTLVTVSS VL: SYELTQPPSVSVSPGQTARITCSGDNLPKYYAHWYQQKPGQAPVVVIFYDNNRPSGIPERFSGSNSGNTATLTISGTQAMDEADYYCQSWLSGTPWFGGGTKLTVLG : 18
2A8-143 (HC S35D+S55R+K99L/LC Y48F+N51V+D91L+V96W) (Fab, V domains shown) VH: QVQLVESGGGLVQPGGSLRLSCAASGFTFRSYGMDWVRQAPGKGLEWVSSIRGSRSSTYYADSVKGRFTISRDNSKNTLYLQMNSLRAEDTAVYYCARLYRYWFDYWGQGTLVTVSS VL: DIELTQPPSVSVAPGQTARISCSGDNLRNYYAHWYQQKPGQAPVVVIFYDVNRPSGIPERFSGSNSGNTATLTISGTQAEDEADYYCQSWLDGVPWFGGGTKLTVLG : 17.8

For the next question, use this binder.
Input line: Entry 2A8 HC I51D+S54F+K99L/LC D91W (Fab, V domains shown) VH: QVQLVESGGGLVQPGGSLRLSCAASGFTFRSYGMSWVRQAPGKGLEWVSSDRGFSSSTYYADSVKGRFTISRDNSKNTLYLQMNSLRAEDTAVYYCARLYRYWFDYWGQGTLVTVSS VL: DIELTQPPSVSVAPGQTARISCSGDNLRNYYAHWYQQKPGQAPVVVIYYDNNRPSGIPERFSGSNSGNTATLTISGTQAEDEADYYCQSWWDGVPVFGGGTKLTVLG has what variant/HC_K99L?
Output line: 6.2
